meta.source: the Human Domainome abundance scans (Beltran et al. 2025)

B1: POU domain, class 4, transcription factor 2, residues 256 to 327; numbered along this chain, Q12837 (parent)
chain: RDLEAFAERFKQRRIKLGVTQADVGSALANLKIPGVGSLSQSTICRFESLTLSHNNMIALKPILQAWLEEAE

Variants of: B1
Test: abundance fitness (aPCA) (normalised: wild type 0, dead -1); higher = more abundant; growth selection in yeast, the domain comes from the species named
Conditions: Homo sapiens
Quantity: abundance fitness

[in] Fill blank: measured abundance fitness of the variant G25Y is ____.
[out] -0.404

[in] Form field: reported abundance fitness of A29D
[out] 0.03

[in] Give the measured abundance fitness of M57E .
[out] -0.565

[in] Give its abundance fitness value. Item: T20A
[out] -0.195

[in] Bench note: what abundance fitness did S38R show?
[out] -0.022

[in] # abundance fitness lookup, item L50G
[out] 0.06

[in] I'd like to know its abundance fitness. The variant in question is C45V
[out] -0.004

[in] # lookup: abundance fitness of E69F
[out] -0.251

[in] // lookup abundance fitness for I33H
[out] -0.438

[in] Please look up its abundance fitness: S49R
[out] 0.032

[in] Endpoint output: abundance fitness of P62F . Value?
[out] -0.761

[in] Entry K61A : reported abundance fitness = ?
[out] -0.178

[in] Endpoint output: abundance fitness of G37I . Value?
[out] -0.587

[in] Need abundance fitness, item R14H
[out] -0.859

[in] Suppose we examine the variant V36T ; what abundance fitness value has been reported?
[out] -0.417

[in] Fill blank: measured abundance fitness of the variant I15P is ____.
[out] -0.569

[in] Please give the measured abundance fitness for this variant: R14A
[out] -0.906

[in] Which abundance fitness is listed for G25T ?
[out] 0.117

[in] Which abundance fitness reading was recorded for the variant E70L ?
[out] -0.454

[in] Can you look up the measured abundance fitness of S38I for me?
[out] -0.146

[in] # abundance fitness lookup, item D23E
[out] -0.057

[in] Which abundance fitness is reported for this variant? S38G
[out] -0.091

[in] Request the reported abundance fitness associated with M57A
[out] -0.306

[in] Reported abundance fitness, variant Q21T : ____
[out] 0.011

[in] Which measured abundance fitness value corresponds to L50W ?
[out] -0.791

[in] For Q21L , what is its reported abundance fitness?
[out] 0.002

[in] Can you look up the measured abundance fitness of L52S for me?
[out] -0.849

[in] Can you look up the measured abundance fitness of Q41T for me?
[out] 0.077

[in] For the variant G37T , what abundance fitness is on record?
[out] -0.162

[in] Please report the recorded abundance fitness for L39F .
[out] -0.181

[in] Name the reported abundance fitness value associated with the variant F47T
[out] -0.922

[in] Please report the recorded abundance fitness for Q65E .
[out] 0.058

[in] // lookup abundance fitness for D23K
[out] 0.09

[in] Reported abundance fitness for C45D : what is it?
[out] -0.135

[in] # abundance fitness lookup, item V24R
[out] -0.76

[in] I have this variant here, H54S , and I need its recorded abundance fitness.
[out] -0.145

[in] Query (variant): E69Q ; field requested: abundance fitness
[out] -0.001

[in] May I ask what abundance fitness has been recorded for I58P ?
[out] -0.854

[in] Record request: abundance fitness value, item L31F
[out] -0.018

[in] Which abundance fitness is reported for this variant? C45T
[out] -0.161

[in] Give its abundance fitness value. Item: Q65M
[out] -0.235
